Tested on: aphid Megoura viciae
Experiment: Aphids on sprayed broad bean plants
Assay type: in vivo
Settings: Table 6; sprayed infested broad bean plants, 24 hours
Collected ACTIVITY LD50 values appear next to each entry.
experimental-endpoint: ACTIVITY LD50 (p.p.m.)

>>> measurement("C#CCSc1nc(C(C)C)nn1C(=O)N(C)C [methyl methyl isopropyl prop-2-ynyl]")
1.5
>>> measurement("C=C(Br)CSc1nc(C(C)(C)C)nn1C(=O)N(C)C [methyl methyl t-butyl 2-bromoallyl]")
0.66
>>> measurement("C#CCSc1nc(C(C)(C)C)nn1C(=O)N(C)C [methyl methyl t-butyl prop-2-ynyl]")
1.1
>>> measurement("C=C(Cl)CSc1nc(C(C)(C)C)nn1C(=O)N(C)C [methyl methyl t-butyl 2-chloroallyl]")
1.6
